Tested on: A549
EXPERIMENTAL DETAILS: In vitro rate of inhibition of A-549 tumor cell growth at 10E-4 mol/L
Format: functional, Homo sapiens
MEASUREMENT PARAMETERS: at 100 µM

MOLECULE	UNIT STRING	Rate of inhibition
CCCC1=NN(C(=O)OC)C(CCC)N=N1 (stereo not given)	%	59.6
CCCC1=NN(C(=O)OC2CCCCC2)C(CCC)N=N1 (stereo not given)	%	25.8
CC1=NN(C(=O)NCc2ccccc2)C(C)=NN1C(=O)NCc1ccccc1	%	64.4
CC1=NN(C(=O)Nc2ccccc2Cl)C(C)=NN1C(=O)Nc1ccccc1Cl	%	28.8
CC(=O)N1NC(C)N(C(C)=O)NC1C (stereo not given)	%	68.5
CCCOC(=O)N1N=C(C)N=NC1C (stereo not given)	%	16.7
CCCCCCCCCCCCC/C=C/[C@@H](O)[C@H](CO)NC(C)=O	%	24.6
CCOC(=O)c1cccc(NC(=O)N2N=C(C)N(C(=O)Nc3cccc(C(=O)OCC)c3)N=C2C)c1	%	67
CCC1NN(C(C)=O)C(CC)NN1C(C)=O (stereo not given)	%	47.5
COc1cccc(NC(=O)N2N=C(C)N(C(=O)Nc3cccc(OC)c3)N=C2C)c1	%	87.7
CCCC1=NNC(CCC)N=N1 (stereo not given)	%	61.7
CC1=NN(C(=O)Nc2cccc(C)c2)C(C)=NN1C(=O)Nc1cccc(C)c1	%	84.8
CC1=NN(C(=O)Nc2ccc(Cl)cc2)C(C)=NN1C(=O)Nc1ccc(Cl)cc1	%	53.4
CC1=NN(C(=O)Nc2cccc([N+](=O)[O-])c2)C(C)=NN1C(=O)Nc1cccc([N+](=O)[O-])c1	%	0.9
CC1=NN(C(=O)NC2CCCCC2)C(C)=NN1C(=O)NC1CCCCC1	%	58.9
C1=CN(c2nnc(N3C=CN=CC3)nn2)CC=N1	%	60.6
c1ccc(C2=NNC(c3ccccc3)=NN2)cc1	%	87.6
CC(=O)N1N=C(c2ccccc2)NN=C1c1ccccc1	%	85.1
CCCCC1NN(C(C)=O)C(CCCC)NN1C(C)=O (stereo not given)	%	47.6
CCOC(=O)N1C(c2ccccc2)=NN=C(c2ccccc2)N1C(=O)OCC	%	95.3
CCCC1=NN(C(=O)OCCC(C)C)C(CCC)N=N1 (stereo not given)	%	89.4
Cc1ccc(-c2nnc(-c3ccc(C)cc3)nn2)cc1	%	90.3
CCCCCOC(=O)N1N=C(C)N=NC1C (stereo not given)	%	22.8
CC1=NN(C(=O)OCc2ccccc2)C(C)N=N1 (stereo not given)	%	0
COC(=O)N1N=C(C)N=NC1C (stereo not given)	%	75.9
